Where do these numbers come from? They come from ChEMBL document CHEMBL1799919.

Each entry below lists one item and its recorded mortality value.
- experiment: Toxicity against fertilized chicken embryo assessed as mortality at 3 ug per egg, iv by CAM assay
- Assay type: organism-based, Gallus gallus
- protocol conditions: in vivo, read-out: Activity
Respond numerically; units are % and should not be typed.

>>> numeric_value("O=C1NCCN1c1ccc(S(=O)(=O)Oc2c(F)cccc2F)cc1")
13
>>> numeric_value("Cc1ccc(C)c(OS(=O)(=O)c2ccc(N3CCNC3=O)cc2)c1")
13
>>> numeric_value("O=C1NCCN1c1ccc(S(=O)(=O)Oc2cc(Cl)cc(Cl)c2)cc1")
29
>>> numeric_value("O=C1NCCN1c1ccc(S(=O)(=O)Oc2ccc(F)cc2)cc1")
29
>>> numeric_value("CCOc1cccc(OS(=O)(=O)c2ccc(N3CCNC3=O)cc2)c1")
13
>>> numeric_value("COc1ccc(/C=C\\c2cc(OC)c(OC)c(OC)c2)cc1O")
41
>>> numeric_value("O=C1NCCN1c1ccc(S(=O)(=O)Oc2cccc(Cl)c2)cc1")
0
>>> numeric_value("O=C1NCCN1c1ccc(S(=O)(=O)Oc2cccc(I)c2)cc1")
43

Just so you know, measured mortality for `COc1cc(OC)cc(OS(=O)(=O)c2ccc(N3CCNC3=O)cc2)c1` came out at 10

====

- Tested on: M21
- experiment: Antiproliferative activity against human M21 cells after 48 hrs by sulforhodamine B assay
- Format: functional, cell-based
- protocol conditions: M21, 48 h
measurement name: IC50 (µM)
Respond numerically; units are µM and should not be typed.

Study these solved cases before continuing.
>>> numeric_value("CCOc1cccc(OS(=O)(=O)c2ccc(N3CCNC3=O)cc2)c1")
0.012
>>> numeric_value("O=C1NCCN1c1ccc(S(=O)(=O)Oc2c(F)cccc2F)cc1")
0.015
>>> numeric_value("O=C1NCCN1c1ccc(S(=O)(=O)Oc2cc(F)cc(F)c2)cc1")
0.015

Entry `O=C1NCCN1c1ccc(S(=O)(=O)Oc2cccc(I)c2)cc1` under M21 had IC50 of 0.01

====

Each entry below lists one item and its recorded pIC50 value.
- experiment: Antiproliferative activity against multidrug-resistant human CEM/VLB cells after 48 hrs by sulforhodamine B assay
- Assay type: functional
As a rule, pIC50 stands for the negative log10 of the concentration, concentration in M.

Study these solved cases before continuing.
>>> numeric_value("Cc1ccc(C)c(OS(=O)(=O)c2ccc(N3CCNC3=O)cc2)c1")
7.64
>>> numeric_value("O=C1NCCN1c1ccc(S(=O)(=O)Oc2cccc(Cl)c2)cc1")
7.70
>>> numeric_value("O=C1NCCN1c1ccc(S(=O)(=O)Oc2ccc(F)cc2)cc1")
6.57
>>> numeric_value("CCOc1cccc(OS(=O)(=O)c2ccc(N3CCNC3=O)cc2)c1")
7.49
>>> numeric_value("O=C1NCCN1c1ccc(S(=O)(=O)Oc2c(F)cccc2F)cc1")
7.06
>>> numeric_value("COc1cc(OC)cc(OS(=O)(=O)c2ccc(N3CCNC3=O)cc2)c1")
8.04
>>> numeric_value("CC[C@]1(O)C[C@@H]2CN(CCc3c([nH]c4ccccc34)[C@@](C(=O)OC)(c3cc4c(cc3OC)N(C)[C@H]3[C@@](O)(C(=O)OC)[C@H](OC(C)=O)[C@]5(CC)C=CCN6CC[C@]43[C@@H]65)C2)C1")
6.22
>>> numeric_value("O=C1NCCN1c1ccc(S(=O)(=O)Oc2cccc(I)c2)cc1")
7.74
>>> numeric_value("O=C1NCCN1c1ccc(S(=O)(=O)Oc2cc(Cl)cc(Cl)c2)cc1")
7.72
>>> numeric_value("COc1cc2c(c(OC)c1OC)-c1ccc(OC)c(=O)cc1[C@@H](NC(C)=O)CC2")
6.44

Just so you know, measured pIC50 for `COc1ccc(OS(=O)(=O)c2ccc(N3CCNC3=O)cc2)cc1` came out at 6.49

Just so you know, measured pIC50 for `COc1cc(OS(=O)(=O)c2ccc(N3CCNC3=O)cc2)cc(OC)c1OC` came out at 8.02
